Target of assay: EPHB2 (UniProt P29323)
Sequence (P29323 whole entry, looked up): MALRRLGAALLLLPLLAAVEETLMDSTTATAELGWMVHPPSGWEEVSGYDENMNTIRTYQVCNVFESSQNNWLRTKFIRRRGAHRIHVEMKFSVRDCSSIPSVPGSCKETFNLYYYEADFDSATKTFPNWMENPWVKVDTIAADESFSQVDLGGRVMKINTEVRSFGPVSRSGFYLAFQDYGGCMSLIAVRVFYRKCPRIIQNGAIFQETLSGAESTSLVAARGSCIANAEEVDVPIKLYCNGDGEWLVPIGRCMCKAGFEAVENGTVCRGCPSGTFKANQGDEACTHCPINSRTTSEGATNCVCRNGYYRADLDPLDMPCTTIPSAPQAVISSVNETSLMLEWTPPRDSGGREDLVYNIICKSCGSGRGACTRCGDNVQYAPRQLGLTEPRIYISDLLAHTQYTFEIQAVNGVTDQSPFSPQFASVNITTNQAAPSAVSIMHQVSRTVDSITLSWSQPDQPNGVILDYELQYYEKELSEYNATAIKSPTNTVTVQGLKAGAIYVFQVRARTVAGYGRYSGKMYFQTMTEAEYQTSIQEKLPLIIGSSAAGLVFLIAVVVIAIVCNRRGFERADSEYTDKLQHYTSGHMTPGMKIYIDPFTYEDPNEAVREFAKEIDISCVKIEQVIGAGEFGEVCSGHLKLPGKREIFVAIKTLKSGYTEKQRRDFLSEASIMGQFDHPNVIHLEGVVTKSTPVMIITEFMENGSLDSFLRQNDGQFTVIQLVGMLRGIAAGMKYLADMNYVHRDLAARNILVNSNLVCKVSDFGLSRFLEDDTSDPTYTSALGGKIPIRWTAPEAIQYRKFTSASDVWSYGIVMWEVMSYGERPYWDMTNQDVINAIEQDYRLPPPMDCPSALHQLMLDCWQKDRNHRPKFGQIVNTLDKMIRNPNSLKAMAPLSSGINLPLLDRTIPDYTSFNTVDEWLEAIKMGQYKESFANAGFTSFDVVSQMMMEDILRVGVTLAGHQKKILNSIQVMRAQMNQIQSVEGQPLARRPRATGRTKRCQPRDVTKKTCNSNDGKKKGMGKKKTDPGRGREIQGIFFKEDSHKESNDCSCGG
Test protocol: phosphorylation enrichment, bacterial display (enrichment ratio); higher = better substrate or ligand; peptides without Tyr show the background;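 also: 11-residue human phosphosite peptides and single-mutation variants displayed on the E. coli surface, counted by deep sequencing, each peptide's frequency after selection divided by its frequency in the unselected input library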;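 also: frequency after pTyr selection over input frequency; kinase dosed for 20-30% of maximal phosphorylation in three min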
Parameter: phosphorylation enrichment

## Task Returns the measured phosphorylation enrichment for the input sequence. Input: RVLKLYGCSPS [ASTL_Y279]
## Result 0.761

## Task Please give the result for DAASNYARGHF [TUBA3E_Y103_YF] too.
## Result 0.514

## Task Try this sequence next: DMQTLYVNTAA [SMCHD1_Y403]
## Result 0.64

## Task Now the sequence TSGVVYKARNK [CDK2_Y19_Y15S]
## Result 0.358

## Task One more sequence: HSVLQYVGGVM [FGGY_Y136]
## Result 0.977

## Task Now consider NAPNSYGRRPS [CDKN2A_Y44_I49S] .
## Result 0.593

## Task Next: YFVVEYRNQKP [MUC17_Y4332_D4334N]
## Result 0.842

## Task Then KSLFHHRQYSA [CPS1_Y1491_Y1491H] ?
## Result 0.491

## Task Next: KEAVLYPHLPP [SQSTM1_Y383_A381V]
## Result 0.579

## Task Subsequent entry: DPEATYTTSGS [EPHA2_Y772_G777S]
## Result 0.518

## Task Then LDPDSYNKFEN [FOXC1_Y159_M161K] ?
## Result 0.656

## Task Quick one: LNGDRYFKGIV [DCX_Y64_R59L]
## Result 3.35

## Task Repeat for the following sequence: GYRVCYTPDSR [PTPRF_Y451_Y450C]
## Result 0.592

## Task Now the sequence SVTCTFSPALN [TP53_Y126_Y126F]
## Result 0.675

* * *

Target of assay: EPHB2 (UniProt P29323)
Test protocol: phosphorylation enrichment, bacterial display (enrichment ratio); higher = better substrate or ligand; peptides without Tyr show the background
Parameter: phosphorylation enrichment
Please reply with the number alone, leaving off any unit.

## Task Bench note: what phosphorylation enrichment did PNRILYRDFRQ [MYH7_Y715_G716R] show?
## Result 0.615

## Task Next sequence: CTTIHYNYRCN [TP53_Y234_M237R]
## Result 0.54

## Task What about ARKRKYFKKHE [NFIX_Y40] ?
## Result 0.535

## Task Entry TSYQMYDKGLV [IARS2_Y231_F227S] please
## Result 0.665

## Task // repeat for PSRKDYETYQP [CTNND2_Y1154] and report
## Result 2.62

## Task Another: KNNDGYIDYAE [MCFD2_Y135]
## Result 0.658

## Task What about this sequence? LESETYRRLLD [KRT12_Y429_I426S]
## Result 0.836

## Task Now this one: ILTLKYPIERG [ACTA1_Y71_H75R]
## Result 0.663

## Task Now the same for GRLGEYDIDEV [SMS_Y134_V132G]
## Result 0.859

## Task Next record, please: DAMQTYNGNDE [TSPAN7_Y131]
## Result 0.576

## Task Follow-up item: SVDRDYVLKSA [HTATIP2_Y111_R106S]
## Result 0.403

## Task Cool, now INNIDYFKNTT [FGFR2_Y656_K659N_YF]
## Result 0.327

## Task Moving on to the next sequence: GQAPGYSFTAA [CYCS_Y47_YF]
## Result 0.427

## Task Also, MPIPMYDASQA [CARMIL1_Y637] please.
## Result 1.01
